assay: ATG_TCF_b_cat_CIS: Attagene CIS-FACTORIAL HepG2 Assay for human T-Cell-Factor with beta-catenin (TCF/b-cat) (AID 2282965); conditions: HepG2 TCF/beta-catenin cis-reporter transcription, actives raise or lower the signal
Active and inactive are the calls of the source. How the source made its calls: active means hit-call score of the fitted dose curve at least 0.9, where 1 is the maximum; inactive means score below 0.9.
test.readout: outcome

Sample records with outcome:
In [3]: df
Out[3]:
             compound_structure_string  test_readout    result
0                 COc1cccc(OC)c1C(=O)O       outcome  inactive
1         c1ccc(CNc2ncnc3nc[nH]c23)cc1       outcome  inactive
2                           CC/C=C\CCO       outcome  inactive
3  Nc1ccc(S(=O)(=O)Nc2cnc3ccccc3n2)cc1       outcome  inactive
4                    NC(=O)c1ccc(N)cc1       outcome  inactive
5         O=[N+]([O-])c1ccc2nc[nH]c2c1       outcome  inactive
6              O=C(O)c1cc(Cl)cc(Cl)c1O       outcome  inactive

Lookup: Can you look up the measured outcome of CC/C=C\CC1=C(C)CCC1=O for me?
Found: inactive
